- assayTarget: human TLR9 (Homo sapiens)
- Construct: host or cells: HEK-Blue cells (HEK293-derived reporter line)
- Sequence (Q9NR96 26-1032): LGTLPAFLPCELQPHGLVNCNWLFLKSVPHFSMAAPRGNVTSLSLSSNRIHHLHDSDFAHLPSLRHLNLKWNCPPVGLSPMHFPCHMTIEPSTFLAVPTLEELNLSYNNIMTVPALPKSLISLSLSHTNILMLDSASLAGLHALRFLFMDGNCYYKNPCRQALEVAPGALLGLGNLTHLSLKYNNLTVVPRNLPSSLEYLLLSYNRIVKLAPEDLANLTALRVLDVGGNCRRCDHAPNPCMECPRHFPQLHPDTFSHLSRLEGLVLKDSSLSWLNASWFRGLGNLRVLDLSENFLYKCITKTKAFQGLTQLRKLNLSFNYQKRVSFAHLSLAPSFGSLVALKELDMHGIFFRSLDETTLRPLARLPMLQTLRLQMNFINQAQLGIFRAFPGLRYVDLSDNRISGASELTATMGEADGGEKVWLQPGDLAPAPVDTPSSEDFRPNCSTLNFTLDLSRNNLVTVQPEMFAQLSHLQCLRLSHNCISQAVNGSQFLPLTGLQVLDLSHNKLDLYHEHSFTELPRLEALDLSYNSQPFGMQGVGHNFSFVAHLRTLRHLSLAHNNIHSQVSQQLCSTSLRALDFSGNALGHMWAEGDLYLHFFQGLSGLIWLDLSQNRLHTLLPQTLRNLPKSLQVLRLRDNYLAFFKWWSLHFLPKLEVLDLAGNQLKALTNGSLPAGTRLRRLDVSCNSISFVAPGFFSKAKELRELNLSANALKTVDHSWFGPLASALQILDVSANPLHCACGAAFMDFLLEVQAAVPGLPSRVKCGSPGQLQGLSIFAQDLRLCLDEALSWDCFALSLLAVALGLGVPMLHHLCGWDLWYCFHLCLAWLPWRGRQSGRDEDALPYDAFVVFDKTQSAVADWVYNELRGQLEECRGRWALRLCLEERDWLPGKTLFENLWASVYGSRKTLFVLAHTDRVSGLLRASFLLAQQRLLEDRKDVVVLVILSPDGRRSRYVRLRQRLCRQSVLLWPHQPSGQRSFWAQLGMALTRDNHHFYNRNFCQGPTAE
- methodNotes: TLR9 inhibition reporter assay (HEK-Blue cells, secreted embryonic alkaline phosphatase reporter)
- Assay type: cell-based
- conditionLabel: HEK-Blue cells overexpressing human TLR9, stimulated with ODN2006 5 nM, 22 hour incubation, reporter readout
Exercise: state measured log10 IC50 for each of the molecules provided.
Note the log scale: values are log10 of IC50 expressed in nM.

**Q:** Given Cc1cc(-c2nc3c(C)cc(C4CCN(C5CCN(CC(C)C)CC5)CC4)cc3[nH]2)cc(C)n1 , respond with its log10 IC50.
**A:** 1.65

**Q:** Given Cc1cc(C2CCN(C3CCN(CC(C)C)CC3)CC2)cc2[nH]c(-c3ccc(C4CC4)cc3)nc12 , respond with its log10 IC50.
**A:** 1.93

**Q:** Given Cc1cc(-c2ccc(OC3CCN(CC(C)C)CC3)cc2)cc2c1nc(-c1ccc(S(C)(=O)=O)cc1)n2C , respond with its log10 IC50.
**A:** 2.90

**Q:** Given CN(C)C1CCN(Cc2ccc(-c3ccc4nc(-c5ccc(S(C)(=O)=O)cc5)n(C)c4c3)cc2)CC1 , respond with its log10 IC50.
**A:** 2.30

**Q:** Given COc1ccc(-c2nc3c(C)cc(C4CC5CCC(C4)N5C4CCN(CC(C)C)CC4)cc3n2C)cc1OC (stereo not drawn) , respond with its log10 IC50.
**A:** 1.36

**Q:** Given CC(C)N1C2CCC1CC(N1CCC(c3cc4c(cc3F)nc(-c3ccc(S(C)(=O)=O)cc3)n4C)CC1)C2 (single isomer, unassigned) [Example 98] , respond with its log10 IC50.
**A:** 1.00

----------
Exercise: state measured IC50 for each of the compounds provided.
- assayTarget: human TLR7 (Homo sapiens, UniProt Q9NYK1)
- Sequence (Q9NYK1 27-1049): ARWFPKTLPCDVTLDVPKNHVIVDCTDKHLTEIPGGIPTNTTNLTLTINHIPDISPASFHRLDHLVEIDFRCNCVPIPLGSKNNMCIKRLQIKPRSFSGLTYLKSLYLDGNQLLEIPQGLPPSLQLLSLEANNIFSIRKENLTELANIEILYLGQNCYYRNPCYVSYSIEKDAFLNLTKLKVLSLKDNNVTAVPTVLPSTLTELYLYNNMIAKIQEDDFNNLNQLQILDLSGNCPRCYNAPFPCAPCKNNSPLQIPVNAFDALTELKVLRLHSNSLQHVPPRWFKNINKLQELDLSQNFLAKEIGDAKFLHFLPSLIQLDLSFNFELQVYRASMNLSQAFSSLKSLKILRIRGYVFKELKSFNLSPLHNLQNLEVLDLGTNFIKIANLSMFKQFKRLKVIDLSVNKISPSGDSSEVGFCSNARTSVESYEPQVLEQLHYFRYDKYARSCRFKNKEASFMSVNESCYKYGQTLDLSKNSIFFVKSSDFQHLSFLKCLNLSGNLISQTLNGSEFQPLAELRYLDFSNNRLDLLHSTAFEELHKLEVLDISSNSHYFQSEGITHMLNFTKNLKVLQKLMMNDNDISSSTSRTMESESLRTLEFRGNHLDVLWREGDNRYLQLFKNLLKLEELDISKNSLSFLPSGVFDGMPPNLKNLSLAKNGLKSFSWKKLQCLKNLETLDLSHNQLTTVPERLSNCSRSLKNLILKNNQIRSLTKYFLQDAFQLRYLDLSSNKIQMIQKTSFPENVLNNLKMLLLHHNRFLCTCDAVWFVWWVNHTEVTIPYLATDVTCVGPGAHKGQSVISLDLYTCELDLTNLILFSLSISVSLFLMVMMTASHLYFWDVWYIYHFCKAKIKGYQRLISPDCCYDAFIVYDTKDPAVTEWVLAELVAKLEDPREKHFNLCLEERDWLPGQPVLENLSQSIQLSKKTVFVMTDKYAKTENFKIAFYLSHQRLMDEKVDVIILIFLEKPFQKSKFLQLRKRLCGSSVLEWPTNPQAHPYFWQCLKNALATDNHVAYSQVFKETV
- methodNotes: TLR7 inhibition reporter assay (HEK-Blue cells, secreted embryonic alkaline phosphatase reporter)
- conditionLabel: HEK-Blue cells overexpressing human TLR7, stimulated with gardiquimod 7.5 μM; read-out: TLR 7 IC50
The reply should be a number in nM, with the unit left off.

**Q:** Given COc1cc(-c2nc3c(C)cc(C4CCN(C5CC6CCC(C5)N6CC(C)C)CC4)cc3[nH]2)cn2ncnc12 (stereo not shown) [Example 359] , respond with its IC50.
**A:** 2900

**Q:** Given Cc1cc(-c2ccc(CN3CCC(N4CCC4)CC3)c(F)c2)cc2c1nc(-c1ccc(S(C)(=O)=O)cc1)n2C [Example 403] , respond with its IC50.
**A:** 300

**Q:** Given COc1ccc(-c2nc3c(C)cc(C4CCN(C5CCN(C6CC6)CC5)CC4)cc3[nH]2)cc1OC [Example 44] , respond with its IC50.
**A:** 9100

**Q:** Given Cc1cc(-c2nc3c(C)cc(C4CCN(C5CCN(CC(C)C)CC5)CC4)cc3[nH]2)cc(C)n1 [Example 60] , respond with its IC50.
**A:** 1500

**Q:** Given COc1ccc(-c2nc3cc(C4CCN(C5CCN(CC(C)C)CC5)CC4)ccc3n2CC(F)F)cc1OC [Example 38] , respond with its IC50.
**A:** 3400

**Q:** Given COc1cc(-c2nc3c(C)cc(C4CCN(C5CC6CCC(C5)N6CC5CC5)CC4)cc3n2C)cn2ncnc12 (stereo not shown) [Example 358] , respond with its IC50.
**A:** 100

**Q:** Given COc1ccc(-c2nc3ccc(C4CCN(C5CCN(C(C)C)CC5)CC4)cc3n2CC(F)F)cc1OC [Example 4] , respond with its IC50.
**A:** 4700

----------
- assayTarget: human TLR7 (Homo sapiens)
- methodNotes: TLR7 inhibition reporter assay (HEK-Blue cells, secreted embryonic alkaline phosphatase reporter)
- conditionLabel: HEK-Blue cells overexpressing human TLR7, stimulated with gardiquimod 7.5 μM; read-out: TLR 7 IC50
Grouping key: IC50. Bins: low: < 4 µM; middle: ≥ 4 µM and < 7 µM; high: ≥ 7 µM

**Q:** Dear colleague, I would appreciate it if you could identify the bin for CC(C)N1C2CCC1CC(N1CCC(c3cc(F)c4nc(-c5ccc(S(C)(=O)=O)cc5)n(C5CC5)c4c3)CC1)C2 (single isomer, unassigned) [Example 116] and reply at your convenience.
**A:** low

**Q:** Dear colleague, I would appreciate it if you could identify the bin for Cn1c(-c2ccc(S(C)(=O)=O)cc2)nc2cc(C3CCN(C4CC5CCC(C4)N5CC4CC4)CC3)cc(F)c21 (stereo not shown) [Example 218] and reply at your convenience.
**A:** middle

**Q:** Dear colleague, I would appreciate it if you could identify the bin for Cn1c(-c2ccc(S(C)(=O)=O)cc2)nc2cc(C3CCN(C4CC5CCC(C4)N5CC4CC4)CC3)c(F)cc21 (single isomer, unassigned) [Example 250] and reply at your convenience.
**A:** high

**Q:** Dear colleague, I would appreciate it if you could identify the bin for CC(C)N1C2CCC1CC(N1CCC(c3ccc4nc(-c5ccc(S(C)(=O)=O)cc5)[nH]c4c3F)CC1)C2 (single isomer, unassigned) [Example 94] and reply at your convenience.
**A:** high

**Q:** Dear colleague, I would appreciate it if you could identify the bin for COc1ccc(-c2nc3ccc(C4CCN(C5CCN(CC(C)C)CC5)CC4)cc3[nH]2)cc1OC [Example 28] and reply at your convenience.
**A:** low

**Q:** Dear colleague, I would appreciate it if you could identify the bin for Cn1c(-c2ccc(S(C)(=O)=O)cc2)nc2cc(C3CCN(C4CC5CCC(C4)N5C4COC4)CC3)c(F)cc21 (single isomer, unassigned) [Example 254] and reply at your convenience.
**A:** high

**Q:** Dear colleague, I would appreciate it if you could identify the bin for CC(C)CN1C2CCC1CC(N1CCC(c3cc(F)c4nc(-c5ccc(S(C)(=O)=O)cc5)n(C)c4c3)CC1)C2 (stereo not shown) [Example 284] and reply at your convenience.
**A:** middle

**Q:** Dear colleague, I would appreciate it if you could identify the bin for Cn1c(-c2ccc(S(C)(=O)=O)cc2)nc2c(F)cc(C3CCN(C4CCCN(CC5CC5)CC4)CC3)cc21 (single isomer, unassigned) [Example 299] and reply at your convenience.
**A:** low

**Q:** Dear colleague, I would appreciate it if you could identify the bin for Cn1c(-c2ccc(S(C)(=O)=O)cc2)nc2ccc(C3CCN(C4CCCN(C5COC5)CC4)CC3)c(F)c21 (stereo not shown) [Example 314] and reply at your convenience.
**A:** middle

**Q:** Dear colleague, I would appreciate it if you could identify the bin for Cc1cc(C2CCN(C3CC4CCC(C3)N4C(C)C)CC2)cc2c1nc(-c1ccc(S(C)(=O)=O)c(F)c1)n2C (stereo not shown) [Example 344] and reply at your convenience.
**A:** high

**Q:** Dear colleague, I would appreciate it if you could identify the bin for CN(C)C1CCN(Cc2ccc(-c3ccc4nc(-c5ccc(F)cc5)n(C)c4c3)cc2)CC1 [Example 378] and reply at your convenience.
**A:** low

**Q:** Dear colleague, I would appreciate it if you could identify the bin for CC(C)CN1C2CCC1CC(N1CCC(c3cc4nc(-c5ccc(S(C)(=O)=O)cc5)n(C)c4cc3F)CC1)C2 (stereo not shown) [Example 247] and reply at your convenience.
**A:** high

Source: patent US12492188B2
